Listing of entries alongside the reported pKd.
Molecular target: T1, human IL-18BP-His (human, UniProt O95998 31-194, limits assumed)
T1 construct: also called His-tagged human IL-18BP; not shown: His tag
T1 sequence (looked up): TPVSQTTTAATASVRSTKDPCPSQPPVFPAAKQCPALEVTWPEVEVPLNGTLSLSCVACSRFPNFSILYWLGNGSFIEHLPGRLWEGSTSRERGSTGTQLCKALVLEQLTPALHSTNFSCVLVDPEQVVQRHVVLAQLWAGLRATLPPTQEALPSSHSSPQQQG
Test: AlphaLISA of free IL-18BP
pKd: −log10 of the molar value.

binder: IL-18 polypeptide C155 (ligand, also called V11I, C38A, D40A, K53A, C76A, C127A) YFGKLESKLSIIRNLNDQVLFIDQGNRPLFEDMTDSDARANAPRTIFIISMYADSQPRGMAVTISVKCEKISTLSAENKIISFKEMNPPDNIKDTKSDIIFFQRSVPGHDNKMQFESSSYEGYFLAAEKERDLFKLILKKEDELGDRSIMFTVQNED
pKd: 9.13
--
binder: IL-18 polypeptide of SEQ ID NO: 42 (E06K, K53A, S55A, T63A) (ligand) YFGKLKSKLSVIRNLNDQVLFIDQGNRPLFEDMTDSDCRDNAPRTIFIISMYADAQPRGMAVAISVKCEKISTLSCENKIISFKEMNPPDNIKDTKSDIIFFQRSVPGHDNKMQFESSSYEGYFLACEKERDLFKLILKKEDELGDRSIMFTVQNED
pKd: 6.09
--
binder: IL-18 polypeptide of SEQ ID NO: 47 (C38S, C68S, C76S, C127S) (ligand) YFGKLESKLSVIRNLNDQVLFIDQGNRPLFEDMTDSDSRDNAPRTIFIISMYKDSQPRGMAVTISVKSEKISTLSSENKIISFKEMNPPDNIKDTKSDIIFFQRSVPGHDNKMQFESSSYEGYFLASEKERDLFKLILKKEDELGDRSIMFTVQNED
pKd: 10.52
--
binder: IL-18 polypeptide of SEQ ID NO: 56 (E6K, K53A, C38S, C76S, C127S) (ligand) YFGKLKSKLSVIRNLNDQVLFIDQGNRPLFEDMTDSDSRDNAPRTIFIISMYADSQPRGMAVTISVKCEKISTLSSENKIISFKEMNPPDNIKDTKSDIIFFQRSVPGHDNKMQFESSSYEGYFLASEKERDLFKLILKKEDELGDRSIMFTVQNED
pKd: 6.36
--
binder: IL-18 polypeptide of SEQ ID NO: 54 (E06K, K53A, C38S, C68S, C76S, C127S, K70C) (ligand) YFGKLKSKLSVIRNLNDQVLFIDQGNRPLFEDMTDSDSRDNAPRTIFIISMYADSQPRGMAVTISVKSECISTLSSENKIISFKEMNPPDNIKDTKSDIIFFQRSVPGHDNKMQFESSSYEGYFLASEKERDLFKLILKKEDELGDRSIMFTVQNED
pKd: 6.35
--
binder: IL-18 polypeptide of SEQ ID NO: 57 (E6K, C38S, K53A) (ligand) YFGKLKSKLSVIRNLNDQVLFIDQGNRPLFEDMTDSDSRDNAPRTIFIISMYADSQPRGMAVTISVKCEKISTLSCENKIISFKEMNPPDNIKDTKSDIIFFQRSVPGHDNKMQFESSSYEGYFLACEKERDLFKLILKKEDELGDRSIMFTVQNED
pKd: 7.30
--
binder: IL-18 polypeptide C150 (ligand, also called V11I, T34A, C38A, K53A, C76A, C127A) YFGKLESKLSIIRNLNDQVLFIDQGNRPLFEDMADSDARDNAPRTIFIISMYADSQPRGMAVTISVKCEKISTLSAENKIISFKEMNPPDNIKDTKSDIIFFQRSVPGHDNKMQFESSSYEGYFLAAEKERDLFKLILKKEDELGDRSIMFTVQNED
pKd: 8.91
